# Tested on: OVCAR-5 ovarian
# experiment_description: NCI tumour cell line growth inhibition, 48 h
Catalogue of TGI values
measurement_label: TGI

>>> value_reported("CC1=Nc2ccccc2C12C(c1ccccc1)C(c1ccccc1)C(=O)N1c3ccccc3CC12 (configuration not stated)")
"> 100 µM"
>>> value_reported("C#Cc1cc(CN(CC(=O)OC(C)(C)C)CC(=O)OC(C)(C)C)nc(CN(CC(=O)OC(C)(C)C)CC(=O)OC(C)(C)C)c1")
"> 100 µM"
>>> value_reported("C=C(CN(C)C)C(=O)c1ccc(Oc2ccccc2)cc1")
"18.6 µM"
>>> value_reported("O=[N+]([O-])c1ccc(C(=Nc2ccccc2)SSC(=Nc2ccccc2)c2ccc([N+](=O)[O-])o2)o1")
"5.04 µM"
>>> value_reported("C/C(=C\\c1ccn(-c2ccc(N)cc2F)n1)[C@@H]1C[C@@H]2O[C@]2(C)CCC[C@H](C)[C@H](O)[C@@H](C)C(=O)C(C)(C)[C@@H](O)CC(=O)O1")
"> 50 µM"
>>> value_reported("C[C@]12CCC(=O)C=C1CC[C@@H]1[C@@H]2[C@@H](O)C[C@@]2(C)[C@H]1CC[C@]2(O)C(=O)COC(=O)C1CCCC1")
"> 100 µM"
>>> value_reported("CCN(CC)CC[n+]1cc2cc(OC)c(OC)cc2c2ccc3cc4c(cc3c21)OCO4")
"3.17 µM"

* * *

# Test system: MCF7 breast
# experiment_description: NCI tumour cell line growth inhibition, 48 h
Quick reference: TGI of the listed items.
measurement_label: TGI (µM)

>>> value_reported("CCc1ccccc1NC(=O)C(=O)CC(=O)c1sc(Nc2ccccc2Cl)nc1C")
45.9
>>> value_reported("CCOC(=O)c1cc(Br)c(-c2onc(C)c2Br)n1C")
77.5
>>> value_reported("Cc1ccc2c(c1)C=CC(C#N)N2C(=O)Oc1ccccc1 (stereo unspecified)")
40.2

* * *

# Test system: MALME-3M melanoma
# experiment_description: NCI tumour cell line growth inhibition, 48 h
# Lookup of reported TGI keyed by entry
measurement_label: TGI (µM)

>>> value_reported("Nc1nc(-c2ccccc2)cc(-c2ccc(Cl)cc2)c1-c1nc2ccccc2o1")
35.3
>>> value_reported("CN1N=C2c3ccccc3CC[C@H]2C1c1cccc(O)c1 (stereo partly drawn)")
5.01

* * *

# Tested on: SF-539 CNS
# experiment_description: NCI tumour cell line growth inhibition, 48 h
Measured TGI accompanies every entry in the list below.
measurement_label: TGI

>>> value_reported("O=[N+]([O-])c1cc2c(c([N+](=O)[O-])c1)Nc1ccccc1O2")
"74.6 µM"
>>> value_reported("COc1cc2c(cc1OCCCN1CCN(c3ncnc4ccccc34)CC1)N=CC1CCCN1C2=O (configuration not stated)")
"0.0696 µM"
>>> value_reported("COc1ccc2c(c1)OC(c1ccccc1O)CC2=O (configuration not stated)")
"> 100 µM"
>>> value_reported("Cc1ccc(S(=O)(=O)Nn2c(O)c(C#N)c(-c3ccc(N(C)C)cc3)c(C#N)c2=O)cc1")
"> 50 µM"
>>> value_reported("C[C@]12CCC(=O)C=C1CC[C@@H]1[C@@H]2[C@@H](O)C[C@@]2(C)[C@H]1CC[C@]2(O)C(=O)COC(=O)C1CCCC1")
"> 100 µM"
>>> value_reported("CC(CN)[C@@H]1CC[C@]2(CO)CC[C@]3(C)[C@H](CC[C@@H]4[C@@]5(C)CCC(N)C(C)(C)[C@@H]5CC[C@]43C)[C@@H]12 (some centres not stated)")
"3.31 µM"
>>> value_reported("c1ccc2c(CNCCCCCCCCCCCCNCc3cccc4ccccc34)cccc2c1")
"3 µM"
